Parameter pIC50: see the listing below.
- System: MALME-3M multicell spheroids, viability
- method: Anticancer human tumor MALME-3M cell line growth inhibition [TAK];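 also: spheroids exposed to drugs for seven days before readout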
- condition-notes: curve of first compound; second compound 9.49 µM
pIC50: −log10 of the molar value.
endpoint: pIC50

>>> reported_measurement("COC1CC2CCC(C)C(O)(O2)C(=O)C(=O)N2CCCCC2C(=O)OC(C(C)CC2CCC(OCCO)C(OC)C2)CC(=O)C(C)C=C(C)C(O)C(OC)C(=O)C(C)CC(C)C=CC=CC=C1C (centres undefined) + CC(C)NCC(C(=O)N1CCN(c2ncnc3c2C(C)CC3O)CC1)c1ccc(Cl)cc1")
9.38
>>> reported_measurement("Cc1nc(NC(=O)N2CCCC2C(N)=O)sc1-c1ccnc(C(C)(C)C(F)(F)F)c1 (centres undefined) + CC(C)NCC(C(=O)N1CCN(c2ncnc3c2C(C)CC3O)CC1)c1ccc(Cl)cc1")
5.37
>>> reported_measurement("CC(C)CC(NC(=O)C(Cc1ccccc1)NC(=O)c1cnccn1)B(O)O (centres undefined) + CC(C)NCC(C(=O)N1CCN(c2ncnc3c2C(C)CC3O)CC1)c1ccc(Cl)cc1")
8.73
>>> reported_measurement("COc1c(OCCCN2CCOCC2)ccc2c3n(c(=NC(=O)c4cnc(N)nc4)nc12)CCN3 + CC(C)NCC(C(=O)N1CCN(c2ncnc3c2C(C)CC3O)CC1)c1ccc(Cl)cc1")
7.38

----------
- System: MALME-3M multicell spheroids, viability
- method: Anticancer human tumor MALME-3M cell line growth inhibition [TAK];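 also: spheroids exposed to drugs for seven days before readout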;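 as to viability, T/C: 100% = DMSO vehicle control viability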
- condition-notes: second compound 9.49 µM; first compound 0.0316 µM; stronger effect = lower value
endpoint: viability, T/C (%)

>>> reported_measurement("Cc1nc(NC(=O)N2CCCC2C(N)=O)sc1-c1ccnc(C(C)(C)C(F)(F)F)c1 (stereo not drawn) + CC(C)NCC(C(=O)N1CCN(c2ncnc3c2C(C)CC3O)CC1)c1ccc(Cl)cc1")
79.4
>>> reported_measurement("COC1CC2CCC(C)C(O)(O2)C(=O)C(=O)N2CCCCC2C(=O)OC(C(C)CC2CCC(OCCO)C(OC)C2)CC(=O)C(C)C=C(C)C(O)C(OC)C(=O)C(C)CC(C)C=CC=CC=C1C (stereo not drawn) + CC(C)NCC(C(=O)N1CCN(c2ncnc3c2C(C)CC3O)CC1)c1ccc(Cl)cc1")
23.6
>>> reported_measurement("CC(C)n1nc(-c2ccc3oc(N)nc3c2)c2c(N)ncnc21 + CC(C)NCC(C(=O)N1CCN(c2ncnc3c2C(C)CC3O)CC1)c1ccc(Cl)cc1")
9.06

----------
- Test system: MALME-3M multicell spheroids, viability
- method: Anticancer human tumor MALME-3M cell line growth inhibition [TAK]; active = viability on the fitted dose curve at most 10% of control; inactive = the rest;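 also: spheroids exposed to drugs for seven days before readout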
- condition-notes: second compound 3 µM; first compound 0.01 µM
Possible outcomes: active, inactive

>>> label_class("COc1c(OCCCN2CCOCC2)ccc2c3n(c(=NC(=O)c4cnc(N)nc4)nc12)CCN3 + CC(C)NCC(C(=O)N1CCN(c2ncnc3c2C(C)CC3O)CC1)c1ccc(Cl)cc1")
"inactive"
>>> label_class("CC(C)n1nc(-c2ccc3oc(N)nc3c2)c2c(N)ncnc21 + CC(C)NCC(C(=O)N1CCN(c2ncnc3c2C(C)CC3O)CC1)c1ccc(Cl)cc1")
"inactive"
>>> label_class("CC(C)CC(NC(=O)C(Cc1ccccc1)NC(=O)c1cnccn1)B(O)O (stereo not given) + CC(C)NCC(C(=O)N1CCN(c2ncnc3c2C(C)CC3O)CC1)c1ccc(Cl)cc1")
"active"
>>> label_class("COC1CC2CCC(C)C(O)(O2)C(=O)C(=O)N2CCCCC2C(=O)OC(C(C)CC2CCC(OCCO)C(OC)C2)CC(=O)C(C)C=C(C)C(O)C(OC)C(=O)C(C)CC(C)C=CC=CC=C1C (stereo not given) + CC(C)NCC(C(=O)N1CCN(c2ncnc3c2C(C)CC3O)CC1)c1ccc(Cl)cc1")
"inactive"
>>> label_class("CC(C)CC(NC(=O)CNC(=O)c1cc(Cl)ccc1Cl)B1OC(=O)CC(CC(=O)O)(C(=O)O)O1 (stereo not given) + CC(C)NCC(C(=O)N1CCN(c2ncnc3c2C(C)CC3O)CC1)c1ccc(Cl)cc1")
"inactive"

----------
Parameter viability, T/C: see the listing below.
- Test system: MALME-3M multicell spheroids, viability
- method: Anticancer human tumor MALME-3M cell line growth inhibition [TAK];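 also: spheroids exposed to drugs for seven days before readout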;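 as to viability, T/C: 100% = DMSO vehicle control viability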
- condition-notes: second compound 30 µM; first compound 0.001 µM; stronger effect = lower value
endpoint: viability, T/C

>>> reported_measurement("CC(C)CC(NC(=O)C(Cc1ccccc1)NC(=O)c1cnccn1)B(O)O (centres undefined) + CC(C)NCC(C(=O)N1CCN(c2ncnc3c2C(C)CC3O)CC1)c1ccc(Cl)cc1")
"51.7%"
>>> reported_measurement("COC1CC2CCC(C)C(O)(O2)C(=O)C(=O)N2CCCCC2C(=O)OC(C(C)CC2CCC(OCCO)C(OC)C2)CC(=O)C(C)C=C(C)C(O)C(OC)C(=O)C(C)CC(C)C=CC=CC=C1C (centres undefined) + CC(C)NCC(C(=O)N1CCN(c2ncnc3c2C(C)CC3O)CC1)c1ccc(Cl)cc1")
"32.8%"
>>> reported_measurement("CC(C)CC(NC(=O)CNC(=O)c1cc(Cl)ccc1Cl)B1OC(=O)CC(CC(=O)O)(C(=O)O)O1 (centres undefined) + CC(C)NCC(C(=O)N1CCN(c2ncnc3c2C(C)CC3O)CC1)c1ccc(Cl)cc1")
"49.8%"
>>> reported_measurement("CC(C)n1nc(-c2ccc3oc(N)nc3c2)c2c(N)ncnc21 + CC(C)NCC(C(=O)N1CCN(c2ncnc3c2C(C)CC3O)CC1)c1ccc(Cl)cc1")
"37.5%"

----------
- System: MALME-3M multicell spheroids, viability
- method: Anticancer human tumor MALME-3M cell line growth inhibition [TAK];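 also: spheroids exposed to drugs for seven days before readout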;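 as to viability, T/C: 100% = DMSO vehicle control viability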
- condition-notes: second compound 9.49 µM; first compound 0.00316 µM; stronger effect = lower value
- Experimental: Combinatorial screen of targeted agents with TAK-243 and ipatasertib in multi-cell type tumor spheroids […] Compounds. […] If the clinical Cmax for an agent had not been determined, the highest concentration tested was 10 microM. NCI60 Cell Culture. […] The optimal seeding densities for each of the cell lines at each time point assessed were determined prior to performing the concentration response studies. […]
Parameter viability, T/C: see the listing below.
endpoint: viability, T/C (%)

>>> reported_measurement("CC(C)n1nc(-c2ccc3oc(N)nc3c2)c2c(N)ncnc21 + CC(C)NCC(C(=O)N1CCN(c2ncnc3c2C(C)CC3O)CC1)c1ccc(Cl)cc1")
43.7
>>> reported_measurement("CC(C)CC(NC(=O)C(Cc1ccccc1)NC(=O)c1cnccn1)B(O)O (stereo not given) + CC(C)NCC(C(=O)N1CCN(c2ncnc3c2C(C)CC3O)CC1)c1ccc(Cl)cc1")
22.7
>>> reported_measurement("CC(C)CC(NC(=O)CNC(=O)c1cc(Cl)ccc1Cl)B1OC(=O)CC(CC(=O)O)(C(=O)O)O1 (stereo not given) + CC(C)NCC(C(=O)N1CCN(c2ncnc3c2C(C)CC3O)CC1)c1ccc(Cl)cc1")
64.8
>>> reported_measurement("COC1CC2CCC(C)C(O)(O2)C(=O)C(=O)N2CCCCC2C(=O)OC(C(C)CC2CCC(OCCO)C(OC)C2)CC(=O)C(C)C=C(C)C(O)C(OC)C(=O)C(C)CC(C)C=CC=CC=C1C (stereo not given) + CC(C)NCC(C(=O)N1CCN(c2ncnc3c2C(C)CC3O)CC1)c1ccc(Cl)cc1")
26
>>> reported_measurement("COc1c(OCCCN2CCOCC2)ccc2c3n(c(=NC(=O)c4cnc(N)nc4)nc12)CCN3 + CC(C)NCC(C(=O)N1CCN(c2ncnc3c2C(C)CC3O)CC1)c1ccc(Cl)cc1")
69.8

----------
- Test system: MALME-3M multicell spheroids, viability
- method: Anticancer human tumor MALME-3M cell line growth inhibition [TAK];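 also: spheroids exposed to drugs for seven days before readout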;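 as to viability, T/C: 100% = DMSO vehicle control viability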
- condition-notes: second compound 0.949 µM; first compound 0.001 µM; stronger effect = lower value
endpoint: viability, T/C

>>> reported_measurement("CC(C)CC(NC(=O)C(Cc1ccccc1)NC(=O)c1cnccn1)B(O)O (centres undefined) + CC(C)NCC(C(=O)N1CCN(c2ncnc3c2C(C)CC3O)CC1)c1ccc(Cl)cc1")
"111%"
>>> reported_measurement("CC(C)n1nc(-c2ccc3oc(N)nc3c2)c2c(N)ncnc21 + CC(C)NCC(C(=O)N1CCN(c2ncnc3c2C(C)CC3O)CC1)c1ccc(Cl)cc1")
"74.7%"
>>> reported_measurement("COC1CC2CCC(C)C(O)(O2)C(=O)C(=O)N2CCCCC2C(=O)OC(C(C)CC2CCC(OCCO)C(OC)C2)CC(=O)C(C)C=C(C)C(O)C(OC)C(=O)C(C)CC(C)C=CC=CC=C1C (centres undefined) + CC(C)NCC(C(=O)N1CCN(c2ncnc3c2C(C)CC3O)CC1)c1ccc(Cl)cc1")
"71.5%"
>>> reported_measurement("CC(C)CC(NC(=O)CNC(=O)c1cc(Cl)ccc1Cl)B1OC(=O)CC(CC(=O)O)(C(=O)O)O1 (centres undefined) + CC(C)NCC(C(=O)N1CCN(c2ncnc3c2C(C)CC3O)CC1)c1ccc(Cl)cc1")
"89%"
